- target of assay: Beta-galactoside alpha-2,6-sialyltransferase 1 (Homo sapiens) (UniProt P15907)
- Sequence (whole entry): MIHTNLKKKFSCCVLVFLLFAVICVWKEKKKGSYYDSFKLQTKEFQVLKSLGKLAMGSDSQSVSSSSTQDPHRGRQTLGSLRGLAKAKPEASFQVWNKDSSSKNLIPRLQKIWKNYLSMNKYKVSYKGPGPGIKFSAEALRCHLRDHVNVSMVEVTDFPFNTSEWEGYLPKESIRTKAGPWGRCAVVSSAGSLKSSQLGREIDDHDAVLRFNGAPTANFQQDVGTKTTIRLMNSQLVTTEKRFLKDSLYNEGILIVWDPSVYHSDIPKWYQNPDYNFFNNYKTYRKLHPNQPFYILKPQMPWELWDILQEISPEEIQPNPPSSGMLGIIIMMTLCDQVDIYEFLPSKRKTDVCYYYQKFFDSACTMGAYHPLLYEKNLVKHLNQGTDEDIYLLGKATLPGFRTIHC
- protocol: Inhibition of recombinant human N-terminal 6His-tagged ST6Gal-1 (Glu44 to Cys406 residues) assessed as CMP production at 10 uM using CMP-Neu5Ac as donar substrate and LacNAc as acceptor by CMP-Glo luminescence microplate reader assay relative to control
Overview of reported inhibition across a group of compounds:
The reply should be a number in %, with the unit left off.

CCCOc1cccc(C(OC(=O)NC[C@H]2O[C@@H](n3ccc(=O)[nH]c3=O)[C@H](O)[C@@H]2O)P(=O)(O)O)c1 (stereo in doubt; 28e-(s)); 7.2
O=C(NC[C@H]1O[C@@H](n2ccc(=O)[nH]c2=O)[C@H](O)[C@@H]1O)OC(c1ccccc1)P(=O)(O)O (stereo in doubt; 28j-(l)); 15.2

Note inhibition for the compound shown: Nc1ccn([C@@H]2O[C@H](CNC(=O)OC(c3cccc(Oc4ccccc4)c3)P(=O)(O)O)[C@@H](O)[C@H]2O)c(=O)n1 (stereo in doubt; 30-(s))
2.2

====

- target of assay: Beta-galactoside alpha-2,6-sialyltransferase 1 (Homo sapiens) (UniProt P15907)
- protocol: Binding affinity to recombinant human N-terminal 6His-tagged ST6Gal-1 (Glu44 to Cys406 residues) assessed as Km/Ki ratio
Binary call on Ratio: true from 2 upward, false beneath that.

O=C(NC[C@H]1O[C@@H](n2ccc(=O)[nH]c2=O)[C@H](O)[C@@H]1O)OC(c1cc2ccccc2s1)P(=O)(O)O (stereo in doubt; 28k-(s)); true

Record O=C(NC[C@H]1O[C@@H](n2ccc(=O)[nH]c2=O)[C@H](O)[C@@H]1O)OC(c1ccc(OC2CCCC2)cc1)P(=O)(O)O (stereo in doubt; 28i-(s)) ; criterion: Ratio no lower than 2. Met?
false

Record O=C(NC[C@H]1O[C@@H](n2ccc(=O)[nH]c2=O)[C@H](O)[C@@H]1O)OC(c1ccc(F)cc1)P(=O)(O)O (stereo in doubt; 28c-(s)) ; criterion: Ratio no lower than 2. Met?
false

Record O=C(NC[C@H]1O[C@@H](n2ccc(=O)[nH]c2=O)[C@H](O)[C@@H]1O)OC(c1cccc(F)c1)P(=O)(O)O (stereo in doubt; 28d-(s)) ; criterion: Ratio no lower than 2. Met?
false

Record O=C(NC[C@H]1O[C@@H](n2ccc(=O)[nH]c2=O)[C@H](O)[C@@H]1O)OC(c1ccc(F)cc1)P(=O)(O)O (stereo in doubt; 28c-(l)) ; criterion: Ratio no lower than 2. Met?
true

Record CCCOc1cccc(C(OC(=O)NC[C@H]2O[C@@H](n3ccc(=O)[nH]c3=O)[C@H](O)[C@@H]2O)P(=O)(O)O)c1 (stereo in doubt; 28e-(l)) ; criterion: Ratio no lower than 2. Met?
false

Record O=C(NC[C@H]1O[C@@H](n2ccc(=O)[nH]c2=O)[C@H](O)[C@@H]1O)OC(c1ccc(OC2CCCC2)cc1)P(=O)(O)O (stereo in doubt; 28i-(l)) ; criterion: Ratio no lower than 2. Met?
true
